# Tested on: SK-MEL-5 melanoma
# Assay Name: NCI-60 one-dose screen, 48 h
# Reported Conditions: 10 µM unless noted
# Protocol: Growth inhibition of the SK-MEL-5 human tumor cell line is measured as a screen for anti-cancer activity. Cells are grown in 96 well plates and exposed to the test compound for 48 hours. Compounds are tested at a single concentration, which is 10^-5 M for most compounds. The reported endpoint is percent growth (GI% or GIPRCNT), where numbers from 0 - 100% represent growth inhibition, and numbers from -100% - 0 represent cell death. For example, a value of 40 represents 60% growth inhibition. […]
The panel holds about 83,000 compounds, 20% with a hit somewhere; the sample as a whole holds those more often. Active and inactive are the calls of the source. Rule for the calls: active = growth percent below 10; inactive = the rest.
Pick from yes (active), no (inactive) when you respond.

Please state the recorded outcome for this molecule: CCCCCN(CCCCC)C(=O)C(CCC(=O)O)NC(=O)c1ccc(Cl)c(Cl)c1 (stereo not drawn) no

Please state the recorded outcome for this molecule: `COc1ccc2nc3ccccc3c(NCc3ccc(Cl)cc3)c2c1` no

Please state the recorded outcome for this molecule: CCCCCCCCOC(=O)C(C)OC(=O)OCCOCCOC(=O)OC(C)C(=O)OCCCCCCCC (stereo not drawn) no

Please state the recorded outcome for this molecule: CC(C)CC1NC(=O)C(CC(C)C)N(CO)C1=O (stereo not drawn) no

Please state the recorded outcome for this molecule: `O=C(/C=C/c1cn(-c2ccccc2)nc1-c1ccccc1)OCc1cn(-c2cccc([N+](=O)[O-])c2)nn1` no
